Data provenance: patent US8846719B2

- Target: human GABA A receptor α5β3γ2 (Homo sapiens (Human), UniProt P18507+P31644)
- Test: [3H]flumazenil competition binding assay, human GABA A α5β3γ2 receptors expressed in HEK293 cells
- Assay Context: human receptor; displacement of [3H]flumazenil (0.5 nM); means of two determinations; read-out: hKi GABAAa5
Outcome Measure: Ki (nM)

Past entries and their recorded results:
O=C(NCC(F)(F)F)c1ccc(OCc2conc2-c2ccc(F)cc2)nc1 : 15.1
Cc1onc(-c2ccccc2)c1COc1ccc(C(=O)NC2CN(C(=O)OC(C)(C)C)C2)cn1 : 4.5
CCNC(=O)CN1CCCC(NC(=O)c2ccc(OCc3c(-c4ccccc4)noc3C)nc2)C1 (centres unmarked) : 13.7
CNC(=O)c1ccc(OCc2c(-c3ccc(F)cc3)noc2C(F)(F)F)nc1 : 19.8
C[C@H](CO)NC(=O)c1ccc(OCc2conc2-c2ccc(F)cc2)nc1 : 27.7

(1) Cc1ccc(-c2noc(C)c2COc2ccc(C(=O)NC3CCOCC3)cn2)cc1
(2) Cc1onc(-c2ccccc2)c1COc1ccc(C(=O)N(C)C2CCOCC2)cn1
q: Form: Entry with minimum Ki (choose one): 1 / 2 Give the label under which the chosen entry appears.
a: 1

====

- Target: human GABA A receptor α5β3γ2 (Homo sapiens (Human), UniProt P18507+P31644)
- Test: [3H]flumazenil competition binding assay, human GABA A α5β3γ2 receptors expressed in HEK293 cells
- Assay Context: human receptor; displacement of [3H]flumazenil (0.5 nM); means of two determinations; read-out: hKi GABAAa5
pKi: −log10 of the molar value.
Outcome Measure: pKi

COCCNC(=O)c1ccc(OCc2c(-c3ccccc3)noc2C)nc1 [Example 184] : 8.11
O=C(N[C@@H]1CCC[C@H]1O)c1ccc(OCc2conc2-c2ccc(F)cc2)nc1 (single isomer, unassigned) [Example 341] : 7.53
Cc1onc(-c2ccccc2)c1COc1ccc(C(=O)NC2CC(OCc3ccccc3)C2)cn1 (stereo not drawn) [Example 226] : 8.59
Cc1onc(-c2ccc(F)cn2)c1COc1ccc(C(=O)NC2CCOCC2)cn1 [Example 288] : 9.40
Cc1onc(-c2ccccc2)c1COc1ccc(C(=O)N(C)C(C)C)cn1 [Example 70] : 7.27
Cc1onc(-c2ccccc2)c1COc1ccc(C(=O)NCc2nc(C#N)cs2)cn1 [Example 21] : 8.55

(a) CCNC(=O)c1ccc(OCc2conc2-c2ccccn2)nc1 [Example 364]
(b) Cc1onc(-c2cccc(F)c2F)c1COc1ccc(C(=O)NC(C)C)cn1 [Example 261]
q: When a and b are compared, which has the higher number for pKi? Lab log: write the label of the selected item as the result.
a: a
(a: 7.87, b: 7.58)

====

- Target: human GABA A receptor α5β3γ2 (Homo sapiens (Human), UniProt P18507+P31644)
- Test: [3H]flumazenil competition binding assay, human GABA A α5β3γ2 receptors expressed in HEK293 cells
- Assay Context: human receptor; displacement of [3H]flumazenil (0.5 nM); means of two determinations; read-out: hKi GABAAa5
- Protocol: The affinity of compounds at GABA A receptor subtypes was measured by competition for [3H]flumazenil (85 Ci/mmol; Roche) binding to HEK293 cells expressing rat (stably transfected) or human (transiently transfected) receptors of composition α1β3γ2, α2β3γ2, α3β3γ2 and α5β3γ2. […]
Outcome Measure: Ki (nM)

Known Ki results, listed for orientation:
Cc1onc(-c2ccccc2)c1COc1ccc(C(=O)N2CCCC2)cn1 : 37.1
Cc1onc(-c2cccnc2)c1COc1ccc(C(=O)NC2CC2)cn1 : 26.3
CC(C)NC(=O)c1ccc(OCc2conc2-c2ccc(F)cn2)nc1 : 6.8
CCOC(=O)CN1CCCC(NC(=O)c2ccc(OCc3c(-c4ccccc4)noc3C)nc2)C1 (centres unmarked) : 13.8
Cc1onc(-c2ccccc2)c1COc1cc(C(F)(F)F)c(C(=O)NC2CCOCC2)cn1 : 10.7
O=C(c1ccc(OCc2c(-c3ccc(F)cc3)noc2C(F)(F)F)nc1)N1CCS(=O)(=O)CC1 : 58.9

(1) Cc1onc(-c2ccc(Cl)cc2)c1COc1ccc(C(=O)N[C@H](C)CO)cn1
(2) COC(=O)c1ccc(OCc2c(-c3ccccc3)noc2C(F)(F)F)nc1
q: Returns: the argument ( 1 or 2 ) having the larger Ki. Respond with the label that goes with your answer.
a: 2
(2: 88.5 nM, 1: 0.8 nM)

====

- Target: human GABA A receptor α5β3γ2 (Homo sapiens (Human), UniProt P18507+P31644)
- Test: [3H]flumazenil competition binding assay, human GABA A α5β3γ2 receptors expressed in HEK293 cells
- Assay Context: human receptor; displacement of [3H]flumazenil (0.5 nM); means of two determinations; read-out: hKi GABAAa5
pKi: −log10 of the molar value.
Outcome Measure: pKi

Take a look at these entries with their results.
Cc1onc(-c2ccccc2)c1COc1ccc(C(=O)NC2CCCCC2O)cn1 (stereo not drawn) : 8.54
Cc1onc(-c2cccnc2)c1COc1ccc(C(=O)NC2CCOCC2)cn1 : 7.55
Cc1onc(-c2ccncn2)c1COc1ccc(C(=O)NC(C)(C)CO)cn1 : 8.09
CC(=O)NCCNC(=O)c1ccc(OCc2conc2-c2ccc(F)cc2)nc1 : 7.42
Cc1onc(-c2ccc(F)cn2)c1COc1ccc(C(=O)NC2CC2)cn1 : 9.22

(1) Cc1onc(-c2ccccc2)c1COc1ccc(Br)cn1
(2) Cc1onc(-c2ccccc2)c1COc1ccc(C(=O)NCC(O)C(F)(F)F)cn1 (stereo not drawn)
q: Which entry shows the lesser value of pKi here, 1 or 2 ? Identify your selection by its label.
a: 1
(1: 7.51, 2: 8.64)

====

- Target: human GABA A receptor α5β3γ2 (Homo sapiens (Human), UniProt P18507+P31644)
- Test: [3H]flumazenil competition binding assay, human GABA A α5β3γ2 receptors expressed in HEK293 cells
- Assay Context: human receptor; displacement of [3H]flumazenil (0.5 nM); means of two determinations; read-out: hKi GABAAa5
// Ki lookup, one value per entry
Please give a number only; it is taken to be in nM.

CCNC(=O)c1ccc(OCc2conc2-c2ccc(F)cn2)nc1 : 14.1
Cc1onc(-c2cccc(F)c2)c1COc1ccc(C(=O)N2CCS(=O)(=O)CC2)cn1 : 13.4
O=C(NCC(F)(F)F)c1ccc(OCc2conc2-c2ccccn2)nc1 : 8

Briefly, Ki measured for `Cc1onc(-c2ccc(Cl)cn2)c1COc1ccc(C(=O)NC(C)(C)CO)cn1` : 0.6

The reported Ki of the molecule `Cc1onc(-c2ccccn2)c1COc1ccc(C(=O)NC(C)(C)CO)cn1` was 4

====

- Target: human GABA A receptor α5β3γ2 (Homo sapiens (Human), UniProt P18507+P31644)
- Test: [3H]flumazenil competition binding assay, human GABA A α5β3γ2 receptors expressed in HEK293 cells
- Assay Context: human receptor; displacement of [3H]flumazenil (0.5 nM); means of two determinations; read-out: hKi GABAAa5
Outcome Measure: Ki (nM)

// worked examples, Ki included
Cc1onc(-c2ccccc2)c1COc1ccc(C(=O)N2CCCC2C)cn1 (stereo not drawn) : 48
Cc1onc(-c2ccccc2)c1COc1ccc(C(=O)N2CCC(F)(F)CC2)cn1 : 16.8
Cc1onc(-c2ccccc2)c1COc1ccc(C(=O)NC2CCCN(CC(=O)NCCO)C2)cn1 (stereo not drawn) : 8.4
Cc1onc(-c2ccccc2)c1COc1ccc(C(=O)N2CCC[C@@H]2CO)cn1 : 20.2
Cc1onc(-c2ccc(Cl)cc2)c1COc1ccc(C(=O)NC(C)(C)CO)cn1 : 4.1

(a) Cc1cc(C(=O)NC(C)C)cnc1OCc1c(-c2ccccc2)noc1C
(b) Cc1onc(-c2ccccc2)c1COc1ccc(C(=O)N2CCOCC2)cn1
q: Just curious, which one has the larger Ki reading, a or b ? Write the label of whichever entry you select.
a: b

====

- Target: human GABA A receptor α5β3γ2 (Homo sapiens (Human), UniProt P18507+P31644)
- Test: [3H]flumazenil competition binding assay, human GABA A α5β3γ2 receptors expressed in HEK293 cells
- Assay Context: human receptor; displacement of [3H]flumazenil (0.5 nM); means of two determinations; read-out: hKi GABAAa5
pKi: −log10 of the molar value.
Outcome Measure: pKi

COC(=O)[C@H](Cc1ccccc1)NC(=O)c1ccc(OCc2c(-c3ccccc3)noc2C)nc1 : 7.32

(a) Cc1onc(-c2ccncc2)c1COc1ccc(C(=O)NCC2CC2)cn1
(b) Cc1onc(-c2cccc(F)c2)c1COc1ccc(C(=O)N2CCSCC2)cn1
q: Smaller pKi value, a vs b ? Answer = label.
a: b

(A) O=C(NC1CC1)c1ccc(OCc2conc2-c2ccc(F)cc2)nc1
(B) Cc1onc(-c2ccc(Cl)cc2)c1COc1ccc(C(=O)NC2CCOCC2)cn1
(C) C[C@@H](CO)NC(=O)c1ccc(OCc2conc2-c2ccc(Cl)cc2)nc1
(D) O=C(NCCO)c1ccc(OCc2conc2-c2ccc(F)cc2)nc1
q: Order these by pKi, descending, and give the full ranking. List the labels, following the order given in the request.
a: B, C, A, D
(B: 9.10, C: 8.37, A: 7.89, D: 7.63)

(P) Cc1onc(-c2ccccn2)c1COc1ccc(C(=O)NC2CCOCC2)cn1
(Q) Cc1cc(CNC(=O)c2ccc(OCc3c(-c4ccccc4)noc3C)nc2)c(=O)[nH]n1
q: I'm curious, which of these has a smaller pKi number: P or Q ? Please respond with the label that marks your chosen entry.
a: Q

(I) COC(=O)c1ccc(OCc2c(-c3ccc(Cl)cc3)noc2C)nc1
(II) Cc1onc(-c2ccccc2)c1COc1ccc(C(=O)NC2CCCN(CC(=O)NC3CCOCC3)C2)cn1 (stereo not drawn)
q: Between the entries labeled I and II , whose measured pKi is lower? Pick one; state its label.
a: II
(II: 7.88, I: 8.35)
